Overview of recorded LC retention time for various compounds
experiment: LC retention time (Atlantis T3, 5-95% MeOH gradient, 0.1% formic acid); higher = more retained / less polar
# unit: min | format: bare number

Consider the following illustrative entries.
INSERT INTO assay_data (compound, measured_parameter, experimental_result) VALUES
  ('C#CC(C)(C)NC(=O)c1cc(Cl)cc(Cl)c1 [Propyzamide]', 'LC retention time', 20),
  ('Cc1onc(-c2ccccc2)c1C(=O)NC1C(=O)N2C1SC(C)(C)C2C(=O)[O-] (stereo not given)', 'LC retention time', 18.4),
  ('CON=C(C(=O)[O-])c1ccccc1COc1ccccc1C', 'LC retention time', 20.1);

## Task I have this compound here, COC(=O)c1cccc(C)c1S(=O)(=O)[N-]C(=O)Nc1nc(OCC(F)(F)F)nc(N(C)C)n1 , and I need its recorded LC retention time.
## Result 19.4

## Task Look at this compound and give its reported LC retention time. CC(C)(C)C(O)(CCc1ccc(Cl)cc1)Cn1cncn1 (stereo not given)
## Result 20.9

## Task Consider the compound CC[NH+]1CCCC1CNC(=O)c1cc(S(=O)(=O)CC)c(N)cc1OC (stereo not given) and give its measured LC retention time.
## Result 10.4

## Task # LC retention time lookup, item CC(C)(C)C(=O)C(Oc1ccc(Cl)cc1)n1ccnc1 (stereo not given)
## Result 16.5

## Task Consider the compound Cc1cc(C(C)(C)C)cc(C)c1CC1=[NH+]CCN1 and give its measured LC retention time.
## Result 15.7

## Task Quick one: LC retention time of COc1ccc2c3c1OC1C(O)C=CC4C(C2)[NH+](C)CCC341 (stereo not given) ?
## Result 9.16

## Task I have this compound here, CC(Cn1cnc2c(N)ncnc21)OCP(=O)([O-])O (stereo not given) , and I need its recorded LC retention time.
## Result 7.16

* * *

experiment: absolute recovery over vacuum-assisted evaporative concentration; higher = better recovery; conditions: wastewater effluent; enrichment method: VEC
Catalogue of absolute recovery readings, one per entry.
Number only, in %; omit the unit.

INSERT INTO measurements (compound, experimental_result) VALUES
  ('C[NH+]1C2CCC1CC(OC(=O)C(CO)c1ccccc1)C2 (stereo not given) [Atropine]', 106),
  ('Nc1c(Cl)c(F)nc(OCC(=O)[O-])c1Cl [Fluroxypyr (free acid)]', 104),
  ('CN(C)C(=O)NC1CCCCCCC1 [Cycluron]', 92.5),
  ('CC(C)[NH2+]CC(O)COc1ccc(CC(=O)[O-])cc1 (stereo not given) [Atenolol-acid (=Metoprolol acid)]', 108),
  ('CC1COC(=O)c2cc3c(cc21)C(C)(C)C(C)C3(C)C (stereo not given) [Galaxolidon]', 61.8),
  ('c1ccc(C2CN3CCSC3=[NH+]2)cc1 (stereo not given) [Levamisol]', 104);

## Task GET /values?readout=absolute recovery&item= O=C([O-])COc1ccc(Cl)cc1Cl [2-4-D]
## Result 103

* * *

assay: absolute recovery over vacuum-assisted evaporative concentration; higher = better recovery; conditions: wastewater influent; enrichment method: VEC
measured_parameter: absolute recovery (%)
Report as a plain number; the unit % is understood.

These recorded examples may help you get a feel for the data.
INSERT INTO assay_data (compound, experimental_result) VALUES
  ('CCCC1CC(C(=O)NC(C(C)Cl)C2OC(SC)C(O)C(O)C2O)[NH+](C)C1 (centres undefined)', 73.2),
  ('COc1ccc(C(C[N+](C)(C)[O-])C2(O)CCCCC2)cc1 (centres undefined) [Venlafaxine-N-Oxide]', 107),
  ('CC(C)Nc1nc(N)nc(O)n1 [Atrazin-desethyl-2-hydroxy]', 93.7);

## Task Item COc1nc(C)nc(NC(=O)[N-]S(=O)(=O)c2ccccc2CCC(F)(F)F)n1 has what recorded absolute recovery?
## Result 102

## Task May I ask what absolute recovery has been recorded for O=C1NCCN1Cc1ccc(Cl)nc1 ?
## Result 104

## Task So what's the measured absolute recovery for this one? CCOC1Oc2ccc(OS(C)(=O)=O)cc2C1(C)C (centres undefined)
## Result 94

## Task Given the compound c1ccc2[nH]nnc2c1 , what is its reported absolute recovery?
## Result 102

## Task Bench note: what absolute recovery did CC(C)N(C(=O)CS(=O)(=O)[O-])c1ccc(F)cc1 show?
## Result 109

## Task Recorded absolute recovery of CCC(CC)OC1C=C(C(=O)[O-])CC([NH3+])C1NC(C)=O (centres undefined) , please.
## Result 105
